# assayed system: MTHFD2 recombinant human enzyme (Homo sapiens, UniProt P13995)
# Sequence (P13995 36-350): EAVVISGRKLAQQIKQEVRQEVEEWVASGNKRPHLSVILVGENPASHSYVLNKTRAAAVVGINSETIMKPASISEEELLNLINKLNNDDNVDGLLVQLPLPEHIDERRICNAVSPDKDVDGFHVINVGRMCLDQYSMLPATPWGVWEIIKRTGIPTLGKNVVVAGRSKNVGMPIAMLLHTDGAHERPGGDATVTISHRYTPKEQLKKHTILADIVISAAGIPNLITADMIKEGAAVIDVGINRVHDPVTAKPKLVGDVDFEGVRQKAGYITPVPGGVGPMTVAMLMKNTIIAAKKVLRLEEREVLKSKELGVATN
# test: MTHFD2 inhibition assay (NAD(P)H-Glo luminescence)
pIC50: −log10 of the molar value.
experimental endpoint: pIC50

Some entries whose results are on file:
{"compound": "COC[C@H]1CN(c2ccc3c4c(c(=O)oc3c2C)CN(C(=O)c2ccc(C(=O)NS(=O)(=O)N3CCCC3)c(OC3CCC3)c2F)CC4)CCN1C1CC1", "assayed system": "MTHFD2 recombinant human enzyme (Homo sapiens, UniProt P13995)", "experimental endpoint": "pIC50", "observed measurement": "5.30 to 6.00"}
{"compound": "COC[C@H]1CN(c2cc(C)c3c4c(c(=O)oc3c2C)CN(C(=O)c2cc(N(C)C)c(C(=O)NS(=O)(=O)N(C)C3CC3)cc2F)CC4)CCN1C", "assayed system": "MTHFD2 recombinant human enzyme (Homo sapiens, UniProt P13995)", "experimental endpoint": "pIC50", "observed measurement": "8.00 to 9.00"}

Next compound, please.
Query block: Please look at this compound and report its pIC50: COC[C@H]1CN(c2cc(C)c3c4c(c(=O)oc3c2C)CN(C(=O)c2ccc(C(=O)NS(=O)(=O)N3CCCC3)c(N3CC5CC5C3)c2)CC4)CCN1C (stereo partly drawn)
Result block: 7.00 to 8.00

====

# assayed system: MTHFD2 recombinant human enzyme (Homo sapiens)
# test: MTHFD2 inhibition assay (NAD(P)H-Glo luminescence)
# condition label: selectivity of MTHFD2 inhibition over MTHFD1, band
experimental endpoint: MTHFD1/MTHFD2 IC50 ratio

Look over these answered cases.
{"structure smiles": "COC[C@H]1CN(c2ccc3c4c(c(=O)oc3c2C)CN(C(=O)c2cc(OC3CCCC3)c(C(=O)NS(=O)(=O)N(C)C)c(C(F)(F)F)c2)CC4)CCN1C", "assayed system": "MTHFD2 recombinant human enzyme (Homo sapiens)", "MTHFD1/MTHFD2 IC50 ratio": "H (>9.0 to 30)"}
{"structure smiles": "CCOc1c(C(=O)NS(=O)(=O)N2C3CCCC2CC3)ccc(C(=O)N2CCc3c(c(=O)oc4c(C)c(N5CCN(C)[C@@H](COC)C5)ccc34)C2)c1F", "assayed system": "MTHFD2 recombinant human enzyme (Homo sapiens)", "MTHFD1/MTHFD2 IC50 ratio": "F (<3)"}
{"structure smiles": "COC[C@H]1CN(c2cc(C)c3c4c(c(=O)oc3c2C)CN(C(=O)c2ccc(C(=O)NS(=O)(=O)N(C)C)c(OC3CCC3)c2F)CC4)CCN1C", "assayed system": "MTHFD2 recombinant human enzyme (Homo sapiens)", "MTHFD1/MTHFD2 IC50 ratio": "F (<3)"}
{"structure smiles": "COC[C@H]1CN(c2cc(C)c3c4c(c(=O)oc3c2C)CN(C(=O)c2cc(OC3CCCC3)c(C(=O)NS(=O)(=O)N(C)C)c(C(F)(F)F)c2)CC4)CCN1C", "assayed system": "MTHFD2 recombinant human enzyme (Homo sapiens)", "MTHFD1/MTHFD2 IC50 ratio": "H (>9.0 to 30)"}
{"structure smiles": "COC[C@H]1CN(c2ccc3c4c(c(=O)oc3c2)CN(C(=O)c2ccc(C(=O)NS(=O)(=O)N3CCCC3)c(OC3CCC3)c2F)CC4)CCN1C", "assayed system": "MTHFD2 recombinant human enzyme (Homo sapiens)", "MTHFD1/MTHFD2 IC50 ratio": "G (^ 3 to 9.0)"}

// next entry
Query block: Please look at this compound and report its MTHFD1/MTHFD2 IC50 ratio: COC[C@H]1CN(c2cc(C)c3c4c(c(=O)oc3c2C)CN(C(=O)c2ccc(C(=O)NS(=O)(=O)C3(C)CC3)c(N(C)C3CC3)c2)CC4)CCN1C
Result block: G (^ 3 to 9.0)
